Value source: ChEMBL document CHEMBL6114936

# assay-info: Selectivity index, ratio of IC50 for HEK293 cells to IC50 for antiplasmodial activity against ring stage chloroquine-sensitive Plasmodium falciparum 3D7
# Assay type: toxicity, cell-based
# details: human, read-out: Ratio IC50
Provide the reported selectivity ratio of each item.

Answered examples (3):
[[record]]
given_smiles = "Cn1cc(NC(=O)c2cc(NC(=O)c3ccc(/C=C/c4ccncc4)cc3)cn2C)cc1C(=O)NCCC(=N)N"
result = "> 613"

[[record]]
given_smiles = "COc1cccc(/C=C/c2ccc(C(=O)Nc3cc(C(=O)Nc4cc(C(=O)NCCC(=N)N)n(C)c4)n(C)c3)cn2)c1"
result = "> 336"

[[record]]
given_smiles = "COc1cccc(/C=C/c2ccc(C(=O)Nc3cc(C(=O)Nc4cc(C(=O)NCCCN(C)C)n(C)c4)n(C)c3)cc2)c1"
result = "> 195"


Request the reported selectivity ratio associated with Cn1cc(NC(=O)c2cc(NC(=O)c3ccc(/C=C/c4ccc5ccccc5c4)cc3)cn2C)cc1C(=O)NCCC(=N)N
> 265

###

# assay-info: Cytotoxicity against HEK293 cells assessed as cell growth inhibition measured after 72 hrs by resazurin dye based fluorescence assay relative to IC50
# Assay type: toxicity
# details: human
I'd appreciate it if you could supply IC50 at 72 h values for the items below.
One number for each entry, in µM.

# count of solved cases: 3
[[record]]
given_smiles = "CN(C)CCCNC(=O)c1cc(NC(=O)c2cc(NC(=O)c3cc(NC(=N)c4cc5ccccc5cn4)cn3C)cn2C)cn1C"
readout_number = 21

[[record]]
given_smiles = "Cn1cc(NC(=O)c2cc(NC(=O)c3ccc(/C=C/c4cccc(F)c4)cc3)cn2C)cc1C(=O)NCCC(=N)N"
readout_number = 40

[[record]]
given_smiles = "CC(C)CCn1cc(NC(=O)c2cc(NC(=O)c3cc(NC(=N)c4cc5ccccc5cn4)cn3C)cn2C)cc1C(=O)NCCCN(C)C"
readout_number = 40


Consider the following items and state reported IC50 at 72 h for each.
1. Cn1cc(NC(=O)c2cc(NC(=O)c3ccc(NC(=O)c4cccc(F)c4)cc3)cn2C)cc1C(=O)NCCC(=N)N
2. COc1cccc(/C=C/c2ccc(C(=O)Nc3cc(C(=O)Nc4cc(C(=O)NCCC(=N)N)n(C)c4)n(C)c3)cn2)c1
3. Cn1cc(NC(=O)c2cc(NC(=O)c3ccc(/C=C/c4ccc5ccccc5c4)cc3)cn2C)cc1C(=O)NCCC(=N)N

40
45
80

Dear colleague, I am looking for the recorded IC50 at 72 h of the following molecule: CC(C)CCc1sc(NC(=O)c2cc(NC(=O)c3cc(NC(=O)c4cccc(F)c4)cn3C)cn2C)nc1C(=O)NCCCN(C)C
40
